Some compounds, each annotated with its measured Relative Amylase Enzyme Activity.
system: amylase; assay: Amylase activity retention in detergent use solution (4000 ppm, 5 GPG water; ethylidene substrate EPS, HEPES buffer pH 8.0); format: biochemical; details: base formula, phosphonate 0.6 wt-%, use solution at 120º F., time 210 min
Value Type: Relative Amylase Enzyme Activity

1. O=P(O)(O)CN(CP(=O)(O)O)CP(=O)(O)O [ATMP, Aminotri (methylene phosphonic acid)] :: 92.78%
2. NCP(=O)(O)O [AMPA, Aminomethyl phosphonic acid] :: 94.06%
3. O=C(O)CCC(CC(=O)O)(C(=O)O)P(=O)(O)O (stereo not shown) [PBTC, Phosphonebutane tricarboxylic acid] :: 94.67%
4. CC(O)(P(=O)(O)O)P(=O)(O)O [HEDP] :: 96.92%
